Origin of the recorded values: the NIST ThermoML archive (doi:10.1021/je9003178)

assay: activity coefficient (dimensionless); of the first substance listed, at infinite dilution; xn = mol fraction of the nth substance listed; details: 322.65 K; Liquid; Chromatography; x1 = 0
Threshold-based label: activity coefficient under 2 gives rule met, activity coefficient not under 2 gives rule not met.

COMPOUND: CCCC(C)=O [pentan-2-one] + CCn1cc[n+](C)c1.N#CN=C=[N-]
ANSWER LABEL: rule not met

COMPOUND: C[N+](=O)[O-] [nitromethane] + CCn1cc[n+](C)c1.N#CN=C=[N-]
ANSWER LABEL: rule met

COMPOUND: CC1CCCCC1 [methylcyclohexane] + CCCCCC[N+](C)(C)C.O=S(=O)([N-]S(=O)(=O)C(F)(F)F)C(F)(F)F
ANSWER LABEL: rule not met

COMPOUND: CC1CCCC1 [methylcyclopentane] + CCn1cc[n+](C)c1.N#CN=C=[N-]
ANSWER LABEL: rule not met

COMPOUND: CCCCCCCCCCCCC [tridecane] + CCn1cc[n+](C)c1.N#CN=C=[N-]
ANSWER LABEL: rule not met

COMPOUND: CCO [ethanol] + CCn1cc[n+](C)c1.N#CN=C=[N-]
ANSWER LABEL: rule met

COMPOUND: C[N+](=O)[O-] [nitromethane] + CCCCCC[N+](C)(C)C.O=S(=O)([N-]S(=O)(=O)C(F)(F)F)C(F)(F)F
ANSWER LABEL: rule met

COMPOUND: C#CCCCCC [1-heptyne] + CCCCCC[N+](C)(C)C.O=S(=O)([N-]S(=O)(=O)C(F)(F)F)C(F)(F)F
ANSWER LABEL: rule not met

COMPOUND: CCC[N+](=O)[O-] [1-nitropropane] + CCCCCC[N+](C)(C)C.O=S(=O)([N-]S(=O)(=O)C(F)(F)F)C(F)(F)F
ANSWER LABEL: rule met

COMPOUND: CC(C)CO [2-methyl-1-propanol] + CCCCCC[N+](C)(C)C.O=S(=O)([N-]S(=O)(=O)C(F)(F)F)C(F)(F)F
ANSWER LABEL: rule not met

COMPOUND: c1ccncc1 [pyridine] + CCCCCC[N+](C)(C)C.O=S(=O)([N-]S(=O)(=O)C(F)(F)F)C(F)(F)F
ANSWER LABEL: rule met

COMPOUND: c1ccncc1 [pyridine] + CCn1cc[n+](C)c1.N#CN=C=[N-]
ANSWER LABEL: rule met

COMPOUND: CCN(CC)CC [triethylamine] + CCCCCC[N+](C)(C)C.O=S(=O)([N-]S(=O)(=O)C(F)(F)F)C(F)(F)F
ANSWER LABEL: rule not met

COMPOUND: CCCCCCC [heptane] + CCn1cc[n+](C)c1.N#CN=C=[N-]
ANSWER LABEL: rule not met

COMPOUND: CCCCCCCCC [nonane] + CCn1cc[n+](C)c1.N#CN=C=[N-]
ANSWER LABEL: rule not met

COMPOUND: CCCCCCC [heptane] + CCCCCC[N+](C)(C)C.O=S(=O)([N-]S(=O)(=O)C(F)(F)F)C(F)(F)F
ANSWER LABEL: rule not met

COMPOUND: CC(C)O [propan-2-ol] + CCCCCC[N+](C)(C)C.O=S(=O)([N-]S(=O)(=O)C(F)(F)F)C(F)(F)F
ANSWER LABEL: rule met
